# Tested on: HepG2
# assay_method_text: Anticancer activity against human HepG2 cells
# Type: functional, cell-based
measurement_kind: IC50 (µM)
Please respond with the number in µM and leave the unit unwritten.

[in] Sample "Cc1nc([N+](=O)[O-])c(N2CCN(CCCBr)CC2)n1Cc1ccccc1" — what was its IC50?
[out] 32.1

[in] "CCOC(=O)N1CCN(c2c([N+](=O)[O-])nc(CC)n2CC)CC1" , same question.
[out] 5.6

[in] "COc1cccc2c1C(=O)c1c(O)c3c(c(O)c1C2=O)C[C@@](O)(C(=O)CO)C[C@@H]3O[C@H]1C[C@H](N)[C@H](O)[C@H](C)O1" , same question.
[out] 0.62

---

# Test system: HL-60
# assay_method_text: Antiproliferative activity against human HL-60 cells assessed as reduction in cell viability incubated for 72 hrs by MTT assay
# Assay type: functional, cell-based
# condition_details: HL-60, 72 h
measurement_kind: IC50 (nM)
Please respond with the number in nM and leave the unit unwritten.

[in] Checklist item: IC50 tested on HL-60, entry "CCOc1ccc(-c2nccn2-c2cc(OC)c(OC)c(OC)c2)cc1Cl" , value?
[out] 1.8

---

For each entry below, report its inhibition at 3.9 µM value.
# System: MCF7
# assay_method_text: Anticancer activity against human MCF7 cells at 3.9 uM relative to control
# Type: functional
Please respond with the number in % and leave the unit unwritten.

[in] Sample "Fc1ccc(Cn2c(-c3ccc(Cl)cc3)nc(-c3ccccc3)c2-c2ccccc2)cc1" — what was its inhibition at 3.9 µM?
[out] 78

[in] "Cc1ccc(-c2nc(-c3ccccc3)c(-c3ccccc3)n2Cc2ccc(F)cc2)cc1" , same question.
[out] 72

[in] "Fc1ccc(Cn2c(-c3ccc(Br)cc3)nc(-c3ccccc3)c2-c2ccccc2)cc1" , same question.
[out] 69

[in] "COc1ccc(-c2nc(-c3ccccc3)c(-c3ccccc3)n2Cc2ccc(F)cc2)cc1" , same question.
[out] 79

---

# Test system: Leukemia cell
# assay_method_text: Growth inhibition of human Leukemia cell
# Format: functional
measurement_kind: GI50 (µM)
Please respond with the number in µM and leave the unit unwritten.

[in] Checklist item: GI50 tested on Leukemia cell, entry "Cc1nc(SCC(=O)Nc2nc(-c3ccc(Cl)cc3)cs2)n(Nc2ccccc2)c1C" , value?
[out] 3.08

[in] "Oc1ccc(/C=C/c2cc(O)cc(O)c2)cc1" , same question.
[out] 15.9

[in] "Cc1ccc(Nn2c(SCC(=O)Nc3nc(-c4ccccc4)cs3)nc(C)c2C)cc1" , same question.
[out] 3.91

[in] "Oc1ccc(-n2cnc(-c3cc(O)cc(O)c3)c2)cc1" , same question.
[out] 4.1

[in] "COc1ccc(Nn2c(SCC(=O)Nc3nc(-c4ccc(Cl)cc4)cs3)nc(C)c2C)cc1" , same question.
[out] 4.15

---

For each entry below, report its inhibition at 500 µM value.
# System: MCF7
# assay_method_text: Anticancer activity against human MCF7 cells at 500 uM relative to control
# Type: functional
Please respond with the number in % and leave the unit unwritten.

[in] Sample "Fc1ccc(Cn2c(-c3ccc(Cl)cc3)nc(-c3ccccc3)c2-c2ccccc2)cc1" — what was its inhibition at 500 µM?
[out] 12

[in] "COc1ccc(-c2nc(-c3ccccc3)c(-c3ccccc3)n2Cc2ccc(F)cc2)cc1" , same question.
[out] 13

[in] "Cc1ccc(-c2nc(-c3ccccc3)c(-c3ccccc3)n2Cc2ccc(F)cc2)cc1" , same question.
[out] 15

[in] "Fc1ccc(Cn2c(-c3ccc(Br)cc3)nc(-c3ccccc3)c2-c2ccccc2)cc1" , same question.
[out] 5
